System under test: Cyclin-dependent kinase 9 (Homo sapiens)
Value type: pKd
Worth noting: pKd values are minus log10 of concentrations stated in mol/L.

response.value for "COc1ccc(CC(=O)Nc2cc(C3CCC3)[nH]n2)cc1" (field: pKd) = 5.97

----------
Cyclin-dependent kinase 9 (Homo sapiens, UniProt P50750): recorded pIC50 for assorted compounds
Sequence (P50750 whole entry): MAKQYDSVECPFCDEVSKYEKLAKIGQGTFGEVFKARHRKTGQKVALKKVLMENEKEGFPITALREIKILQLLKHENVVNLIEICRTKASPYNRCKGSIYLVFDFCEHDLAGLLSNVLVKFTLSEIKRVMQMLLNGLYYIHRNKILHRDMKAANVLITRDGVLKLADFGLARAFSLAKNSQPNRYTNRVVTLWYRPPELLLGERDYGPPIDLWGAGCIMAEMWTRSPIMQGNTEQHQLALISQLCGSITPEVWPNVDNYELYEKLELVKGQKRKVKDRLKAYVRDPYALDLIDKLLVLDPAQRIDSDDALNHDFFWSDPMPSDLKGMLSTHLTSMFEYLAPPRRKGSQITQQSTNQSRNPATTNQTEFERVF
pIC50: −log10 of the molar value.
Value type: pIC50

A. O=C(CCCOc1ccc(CC(=O)Nc2cc(C3CCC3)[nH]n2)cc1)NCCCCNc1cccc2c1C(=O)N(C1CCC(=O)NC1=O)C2=O (configuration not stated)
B. COc1ccc(CC(=O)Nc2cc(C3CCC3)[nH]n2)cc1
INPUT: Quick check, higher pIC50 between A and B ? Choose, then provide that item's label.
OUTPUT: A

Entry source: ChEMBL document CHEMBL4819106
